Assay: Determination of compound Cmax and AUC
Type: in vivo
Conditions: rat; Sprague-Dawley rats, oral gavage, serum 0.5-4 h; actual oral dose (mg/kg) given
AUC overview
Quantity Kind: AUC

INSERT INTO measurements (compound, quantity_kind, test_result) VALUES
  ('CN1Cc2c(Cl)cc(Cl)cc2C(c2ccc(S(=O)(=O)NCCOCCOCCNC(=O)c3cc(N)cc(C(=O)NCCOCCOCCNS(=O)(=O)c4ccc(C5CN(C)Cc6c(Cl)cc(Cl)cc65)cc4)c3)cc2)C1.O=C(O)C(F)(F)F.O=C(O)C(F)(F)F.O=C(O)C(F)(F)F (centres unmarked)', 'AUC', '< 5 ng·h/mL'),
  ('CN1Cc2c(Cl)cc(Cl)cc2C(c2ccc(S(=O)(=O)NCC(=O)NCC(=O)NCC(=O)NCCCCNC(=O)CNC(=O)CNC(=O)CNS(=O)(=O)c3ccc(C4CN(C)Cc5c(Cl)cc(Cl)cc54)cc3)cc2)C1 (centres unmarked)', 'AUC', '< 2 ng·h/mL');
